Measured values drawn from the supplement of paper PMC10724198 for this set.

Assignment: determine reported protein stability index for the given sequences.
- Test system: Saccharomyces cerevisiae;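 further: PSI is a weighted mean of sequencing reads over stability bins, variants kept only with over 10 reads, mCherry proximal and sfGFP distal, peptide attached via GGGS linker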
- Protocol description: protein stability index of tFT-peptide fusion (C-terminal peptide) (PSI (0-1 scale)); higher = more stable (slower turnover)
- Condition parameters: genetic background: wild type; temperature: 30 C
Form field (numeric): enter value without unit.

Q. Sample RAGSLRFRVILY — what was its protein stability index?
A. 0.635

Q. GRLFCAALPLPL , same question.
A. 0.666

Q. CCPLRLPRSRGY , same question.
A. 0.705

Q. PPPRPPHGPLPY , same question.
A. 0.658

Q. HYWTTENDWPHG , same question.
A. 0.705

Q. LAPPPPVPPTHS , same question.
A. 0.721

Q. EYRKSVERLRVD , same question.
A. 0.687

Q. PPLFPPPPPLPR , same question.
A. 0.718

Q. PRALCPPPSPST , same question.
A. 0.697

Q. EVALDRLKNRGG , same question.
A. 0.671

Q. WCVLLMALFRWW , same question.
A. 0.625

Q. HDGPYPALLATK , same question.
A. 0.606

Q. PHPPPTAPGPSP , same question.
A. 0.67

Q. HLFVCGNGVSAT , same question.
A. 0.684

Q. HLFAISGGKERI , same question.
A. 0.697

Q. ANRTIFWGRVRN , same question.
A. 0.721

Q. VNAGAPGVLAWV , same question.
A. 0.739

Q. TPVLPLSPFPPD , same question.
A. 0.607

Q. YSVPDFIVVSHL , same question.
A. 0.797

Q. RAITPRHKRLVG , same question.
A. 0.693

Q. TDPLGDDSSESE , same question.
A. 0.672

Q. VLSCIPRLAIAA , same question.
A. 0.327

Q. PPLSLRPDLPVF , same question.
A. 0.649

Q. PPPTPPSRILPA , same question.
A. 0.699

Q. AEERTSETRYKN , same question.
A. 0.656

Q. FPTLHPAIPYLC , same question.
A. 0.458

Q. GCIELTGHLGSF , same question.
A. 0.706

Q. APPRPCFSALTL , same question.
A. 0.726

Q. EPIMVKKACTDG , same question.
A. 0.645

Q. FTSRGLLILGFM , same question.
A. 0.619

Q. LFLYDFIALRCS , same question.
A. 0.415

Q. RGEERGGTRPAG , same question.
A. 0.679

Q. RLDRGLHIKAIT , same question.
A. 0.704

Q. GGSSWSLGGGCG , same question.
A. 0.713

Q. PPPPAPPPAPPP , same question.
A. 0.558

Q. HRLQGQGAWYVT , same question.
A. 0.643

Q. LLPPVLPPTLPP , same question.
A. 0.633

Q. TCGAKWIFSHIC , same question.
A. 0.267

Q. AGDGCGDWGRLS , same question.
A. 0.761

Q. IGYLGSELRFVS , same question.
A. 0.514

Q. WAFYFPWSSSLM , same question.
A. 0.726
